- protocol_description: Excretion study in SD rats following single subcutaneous administration
- Format: in vivo, SD rat
- test_parameters: male, Sprague-Dawley, rat, urine + feces, sc, 10 mg/kg
Peptide text beside a SMILES is read from it.
measurement_name: dose excreted at 24 h (%)
Field format: number, assumed %, no unit text.

response.value for CC(C)[C@@H](NC(=O)[C@H](N)Cc1ccc(O)cc1)C(=O)N[C@H](CC(=O)O)C(=O)N[C@H](CCCCN)C(=O)N[C@H](CCCNC(=N)N)C(=O)O [FC-12738, (D-Tyr)-(D-Val)-(D-Asp)-(D-Lys)-(D-Arg)] (HELM PEPTIDE1{[dY].[dV].[dD].[dK].[dR]}$$$$V2.0) (field: dose excreted at 24 h) = 85.8

----------
- protocol_description: Single rising dose pharmacokinetics in beagle dogs
- Type: in vivo, beagle dog
- test_parameters: male, beagle, dog, plasma, sc, 5 mg/kg
Peptide text beside a SMILES is read from it.
measurement_name: Tmax (h)
Field: numeric (h). Do not append units.

What the record says about CC(C)[C@@H](NC(=O)[C@H](N)Cc1ccc(O)cc1)C(=O)N[C@H](CC(=O)O)C(=O)N[C@H](CCCCN)C(=O)N[C@H](CCCNC(=N)N)C(=O)O [FC-12738, (D-Tyr)-(D-Val)-(D-Asp)-(D-Lys)-(D-Arg)] (HELM PEPTIDE1{[dY].[dV].[dD].[dK].[dR]}$$$$V2.0) : Tmax is 1

----------
- protocol_description: Plasma stability
- Assay type: in vitro ADME, SD rat
- test_parameters: SD, rat, plasma
Peptide text beside a SMILES is read from it.
measurement_name: remaining at 10 min, 2 μM (%)
Reply numerically in %, unit not repeated.

# remaining at 10 min, 2 μM of CC(C)[C@@H](NC(=O)[C@H](N)Cc1ccc(O)cc1)C(=O)N[C@H](CC(=O)O)C(=O)N[C@H](CCCCN)C(=O)N[C@H](CCCNC(=N)N)C(=O)O [FC-12738, (D-Tyr)-(D-Val)-(D-Asp)-(D-Lys)-(D-Arg)] (HELM PEPTIDE1{[dY].[dV].[dD].[dK].[dR]}$$$$V2.0) = 104

----------
- protocol_description: In vitro blood to plasma partitioning
- Format: in vitro ADME, rat
- test_parameters: rat, whole blood
Peptide text beside a SMILES is read from it.
measurement_name: tissue to tissue ratio at 1 h, 2 µM
// no unit, no text: just the number

Measured tissue to tissue ratio at 1 h, 2 µM, CC(C)[C@@H](NC(=O)[C@H](N)Cc1ccc(O)cc1)C(=O)N[C@H](CC(=O)O)C(=O)N[C@H](CCCCN)C(=O)N[C@H](CCCNC(=N)N)C(=O)O [FC-12738, (D-Tyr)-(D-Val)-(D-Asp)-(D-Lys)-(D-Arg)] (HELM PEPTIDE1{[dY].[dV].[dD].[dK].[dR]}$$$$V2.0) : 0.5

----------
- protocol_description: Single-dose pharmacokinetics in SD rats
- Format: in vivo, SD rat
- test_parameters: male, SD, rat, plasma, iv, 2 mg/kg
Peptide text beside a SMILES is read from it.
measurement_name: clearance (mL/min/kg)
Write the answer as a number in mL/min/kg, unit excluded.

The compound identified as CC(C)[C@@H](NC(=O)[C@H](N)Cc1ccc(O)cc1)C(=O)N[C@H](CC(=O)O)C(=O)N[C@H](CCCCN)C(=O)N[C@H](CCCNC(=N)N)C(=O)O [FC-12738, (D-Tyr)-(D-Val)-(D-Asp)-(D-Lys)-(D-Arg)] (HELM PEPTIDE1{[dY].[dV].[dD].[dK].[dR]}$$$$V2.0) registered its clearance at 11.8

Cited source for all entries: paper doi:10.1101/2023.04.18.537371v1
